System: UACC-257
Assay: NCI tumour cell line growth inhibition, 48 h
Active and inactive are the calls of the source. Cut-off read from the data, not from the text of the source: active = GI50 up to about 1.1 µM and inactive = higher.
GI50 for assorted compounds

Use these answered entries as a reference point.
N#CC1CCN2N=C(c3ccccc3)SC12c1ccccc1 (centres undefined) :: 39.3 µM (inactive)
Cc1cc(C)nc(NS(=O)(=O)c2ccc(NNc3c4ccccc4nc4c(C(=O)Nc5ccc(S(=O)(=O)N=C(N)N)cc5)cccc34)cc2)n1 :: > 100 µM (inactive)
COC(=O)c1ccc(C(=O)OC)c2nc3cc(C)ccc3nc12 :: > 100 µM (inactive)

Field request: GI50 | item: `CN(C)C(=S)SCC(=O)Nc1ccccc1`
> 100 µM (inactive)

Cool, now `COc1cccc(C(=O)N[C@@H]2[C@H](O)[C@@H](CO)O[C@H]2n2cnc3c(N)ncnc32)c1`
> 100 µM (inactive)

Same lookup for COC(=O)/C(=N\NC(N)=O)C(C(=O)C=C(C)C)C(=O)C(=O)Nc1ccc(Cl)c(Cl)c1 (centres undefined) , please.
> 100 µM (inactive)

Follow-up entry: `COc1cc2c(oc(=O)c3c4occc4cc(OC)c23)c2cccc(OCc3ccccc3)c12`
> 100 µM (inactive)

Next compound up: `O=C(c1ccccc1)n1cc(-c2ccccc2)c2c(=O)nc[nH]c21`
> 100 µM (inactive)
